Target: T1, Human TNC-A2 + avi-tag + his6-tag (human, biotinylated in vivo at the avi-tag)
T1 construct: also called hu TNC A2; A2 domain of human tenascin
T1 chain: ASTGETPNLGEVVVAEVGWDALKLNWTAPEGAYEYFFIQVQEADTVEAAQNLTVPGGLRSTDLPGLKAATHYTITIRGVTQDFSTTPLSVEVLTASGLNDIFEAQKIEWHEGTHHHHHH
Assay: SPR (ProteOn XPR36), purified Fab, monovalent binding
MEASURE_NAME: pKd
Numbers only, as −log10 of the molar value.

A selection of reference data follows.
1) 2B10_C3A6 Fab (Fab, V domains shown, also called clone 2B10_C3A6) VH: QVQLVQSGAEVKKPGSSVKVSCKASGGTFSSYAISWVRQAPGQGLEWMGGIIPIFGTANYAQKFQGRVTITADKSTSTAYMELSSLRSEDTAVYYCARLYGYAYYGAFDYWGQGTTVTVSS VL: DIQMTQSPSSLSASVGDRVTITCRASQGIRNVLGWYQQKPGKAPKRLIYDSSSLQSGVPSRFSGGGSGTEFTLTISSLQPEDFATYYCLQNGLQPATFGQGTKVEIK    9.30
2) 2B10_6H10 Fab (Fab, V domains shown, also called clone 2B10-6H10) VH: QVQLVQSGAEVKKPGSSVKVSCKASGGTFSSYAISWVRQAPGQGLEWMGGIIPIFGTANYAQKFQGRVTITADKSTSTAYMELSSLRSEDTAVYYCARLYGYAYYGAFDYWGQGTTVTVSS VL: DIQMTQSPSSLSASVGDRVTITCRASQGIRNVLGWYQQKPGKAPKRLIQAATSLQSGVPSRFSGGGSGTEFTLTISSLQPEDFATYYCLQNGLQPATFGQGTKVEIK    9.09

Hello, I would appreciate it if you could give pKd for each entry below.
1. 2B10_6A12 Fab (Fab, V domains shown, also called clone 2B10-6A12) VH: QVQLVQSGAEVKKPGSSVKVSCKASGGTFSSYAISWVRQAPGQGLEWMGVIIPILGTANYAQKFQGRVTITADKSTSTAYMELSSLRSEDTAVYYCARLYGYAYYGAFDYWGQGTTVTVSS VL: DIQMTQSPSSLSASVGDRVTITCRASQGIRNDLGWYQQKPGKAPKRLIYAASSLQSGVPSRFSGSGSGTEFTLTISSLQPEDFATYYCLQNGLQPATFGQGTKVEIK
2. 2B10_O7D8 Fab (Fab, V domains shown, also called clone 2B10_O7D8) VH: QVQLVQSGAEVKKPGSSVKVSCKASGGTFSSYAISWVRQAPGQGLEWMGGIIPIFGTANYAQKFQGRVTITADKSTSTAYMELSSLRSEDTAVYYCARLYGYAYYGAFDYWGQGTTVTVSS VL: DIQMTQSPSSLSASVGDRVTITCRASQSIRNVLGWYQQKPGKAPKRLIYDVSSLQSGVPSRFSGGGSGTEFTLTISSLQPEDFATYYCLQNGLQPATFGQGTKVEIK
3. 2B10_C3B6 Fab (Fab, V domains shown, also called clone 2B10_C3B6) VH: QVQLVQSGAEVKKPGSSVKVSCKASGGTFSSYAISWVRQAPGQGLEWMGAIIPILGIANYAQKFQGRVTITADKSTSTAYMELSSLRSEDTAVYYCARLYGYAYYGAFDYWGQGTTVTVSS VL: DIQMTQSPSSLSASVGDRVTITCRASQGIRNDLGWYQQKPGKAPKRLIYAASSLQSGVPSRFSGSGSGTEFTLTISSLQPEDFATYYCLQNGLQPATFGQGTKVEIK
4. 2B10_O1F7 Fab (Fab, V domains shown, also called clone 2B10_O1F7) VH: QVQLVQSGAEVKKPGSSVKVSCKASGGTFSSYAISWVRQAPGQGLEWMGGIIPIFGTANYAQKFQGRVTITADKSTSTAYMELSSLRSEDTAVYYCARLYGYAYYGAFDYWGQGTTVTVSS VL: DIQMTQSPSSLSASVGDRVTITCRASQGIRNVLGWYQQKPGKAPKRLIYDASSLQSGVPSRFSGGGSGTEFTLTISSLQPEDFATYYCLQNGLQPATFGQGTKVEIK

Result:
1. 9.54
2. 9.83
3. 9.72
4. 10.25
